Numbers sourced from patent US12617781B2.

test: PK study on intravenous administration of the pharmaceutical composition containing Utidelone semihydrate crystal; format: in vivo; conditions: human, in vivo, iv, 40 mg/m2, intravenous infusion 40 mg/m2 once a day for 5 days; 5th day; read-out: AUC(0-24)
readoutType: AUC(0-t) (ng·h/mL)
Quick reminder: number only, in ng·h/mL, skip the unit.

## Task What value of measured AUC(0-t) is listed for C/C1=C/C[C@@H](/C(C)=C/c2csc(C)n2)OC(=O)C[C@H](O)C(C)(C)C(=O)[C@H](C)[C@@H](O)[C@@H](C)CCC1 ?
## Result 4550

###

test: Solubility test; type: physicochemical; conditions: 0.1N hydrochloric acid solution, simulated gastric fluid, thermodynamic from solid
readoutType: solubility

## Task Look up solubility: C/C1=C/C[C@@H](/C(C)=C/c2csc(C)n2)OC(=O)C[C@H](O)C(C)(C)C(=O)[C@H](C)[C@@H](O)[C@@H](C)CCC1 [semihydrate crystal]
## Result > 5000 µg/mL
